System: PCSK9
Test: PCSK9 lowering in sandwich culture human hepatocytes (SCHH)
Format: cell-based
Conditions: maximum response versus vehicle; at 6 h at 30 uM
outcome.measure: Sandwich Culture Hepatocyte (SCHH) PCSK9 Lowering (% at 6 h at 30 uM)

>  <compound>
CCC(OC(=O)C(C)C)n1nnc(-c2c(-c3ccc(C(=O)N(c4ncccc4C)[C@@H]4CCCNC4)cc3)cnn2C)n1 (single isomer, unassigned) [Example 52]

>  <study.system>
PCSK9

>  <numeric.readout>
25

$$$$

P: CCOC(=O)OC(n1nnc(-c2c(-c3ccc(C(=O)N(c4ncccc4C)[C@@H]4CCCNC4)cc3)cnn2C)n1)C(C)(C)C (single isomer, unassigned) [Example 36]
Q: CCC(=O)OC(C(C)C)n1nnc(-c2c(-c3ccc(C(=O)N(c4ncccc4C)[C@@H]4CCCNC4)cc3)cnn2C)n1 (single isomer, unassigned) [Example 48]
query: Would you mind telling me which has the lower recorded Sandwich Culture Hepatocyte (SCHH) PCSK9 Lowering between P and Q ? Provide the label of your selected option as the answer.
result: Q
(Q: 16 % at 6 h at 30 uM, P: 27 % at 6 h at 30 uM)

---

Test system: human PCSK9
Experiment: Cell Free PCSK9 Assay (PCSK9-luciferase RNA translated in HeLa cell lysate)
Type: biochemical
Details: 30° C. for 45 minutes, luciferase readout, top concentration 100 μM
pIC50: −log10 of the molar value.
outcome.measure: pIC50

>  <compound>
CCOC(=O)OC(C(C)C)n1nnc(-c2c(-c3ccc(C(=O)N(c4ncccc4C)[C@@H]4CCCNC4)cc3)cnn2C)n1 (single isomer, unassigned) [Example 34]

>  <pIC50>
5.28

$$$$
>  <compound>
Cn1ncc(-c2ccc(C(=O)N(c3ncccc3Cl)[C@@H]3CCCNC3)cc2)c1C(=O)Nc1nnn[nH]1

>  <pIC50>
4.60

$$$$

I: Cn1ncc(-c2ccc(C(=O)N(c3ncccc3Cl)[C@@H]3CCCNC3)cc2)c1-c1nn[nH]n1
II: Cc1cccnc1N(C(=O)c1ccc(-c2cnn(C)c2-c2nn[nH]n2)cc1)[C@@H]1CCCNC1
query: In the pair I and II , the larger recorded pIC50 belongs to which? Provide the label of your selected option as the answer.
result: II
(II: 5.52, I: 5.24)

---

Tested on: human PCSK9
Assay: Cell Free PCSK9 Assay (PCSK9-luciferase RNA translated in HeLa cell lysate)
Type: biochemical
Details: 30° C. for 45 minutes, luciferase readout, top concentration 100 μM
pIC50: −log10 of the molar value.
outcome.measure: pIC50

>  <compound>
CCC(OC(=O)C(C)C)n1nnc(-c2c(-c3ccc(C(=O)N(c4ncccc4C)[C@@H]4CCCNC4)cc3)cnn2C)n1 (single isomer, unassigned) [Example 52]

>  <study.system>
human PCSK9

>  <pIC50>
4.97

$$$$
>  <compound>
Cc1cccnc1N(C(=O)c1ccc(-c2cnn(C)c2-c2nnn(C(C)OC(=O)C(C)C)n2)cc1)[C@@H]1CCCNC1 (single isomer, unassigned) [Example 50]

>  <study.system>
human PCSK9

>  <pIC50>
5.10

$$$$
>  <compound>
Cc1cccnc1N(C(=O)c1ccc(-c2cnn(C)c2-c2noc(=O)[nH]2)cc1)[C@@H]1CCCNC1

>  <study.system>
human PCSK9

>  <pIC50>
5.25

$$$$

a: CCOC(=O)OC(C)OC(=O)c1c(-c2ccc(C(=O)N(c3nccc4ccccc34)[C@@H]3CCCNC3)cc2)cnn1C (stereo partly drawn)
b: Cn1ncc(-c2ccc(C(=O)N(c3ncccc3Cl)[C@@H]3CCCNC3)cc2)c1C(=O)NS(C)(=O)=O
query: Would you mind telling me which has the lower recorded pIC50 between a and b ? Provide the label of your selected option as the answer.
result: b

1: CCOC(=O)O[C@H](C)OC(=O)c1c(-c2ccc(C(=O)N(c3ncccc3Cl)[C@@H]3CCCNC3)cc2)cnn1C [Example 15b]
2: Cn1ncc(-c2ccc(C(=O)N(c3ncccc3Cl)[C@@H]3CCCNC3)cc2)c1C(=O)NO
3: CCC(OC(=O)OC(C)C)n1nnc(-c2c(-c3ccc(C(=O)N(c4ncccc4C)[C@@H]4CCCNC4)cc3)cnn2C)n1 (single isomer, unassigned) [Example 40]
query: Sort entries by pIC50 from minimum to maximum value. Give your ranking as a list of the labels in the requested order.
result: 3, 1, 2
(3: 4.74, 1: 5.30, 2: 5.53)

A: COC(=O)c1c(-c2ccc(C(=O)N(c3ncccc3Cl)[C@@H]3CCCNC3)cc2)cnn1C
B: Cc1cccnc1N(C(=O)c1ccc(-c2cnn(C)c2-c2nnn(C(C)OC(=O)OC(C)C)n2)cc1)[C@@H]1CCCNC1 (single isomer, unassigned) [Example 38]
C: Cc1cccnc1N(C(=O)c1ccc(-c2cnn(C)c2-c2nnn(C(OC(=O)OC(C)C)C(C)C)n2)cc1)[C@@H]1CCCNC1 (single isomer, unassigned) [Example 43]
D: CCC(=O)OC(C(C)C)n1nnc(-c2c(-c3ccc(C(=O)N(c4ncccc4C)[C@@H]4CCCNC4)cc3)cnn2C)n1 (single isomer, unassigned) [Example 48]
query: Sort entries by pIC50 from minimum to maximum value. Give your ranking as a list of the labels in the requested order.
result: C, D, B, A

P: CCOC(=O)OC(n1nnc(-c2c(-c3ccc(C(=O)N(c4ncccc4C)[C@@H]4CCCNC4)cc3)cnn2C)n1)C(C)(C)C (single isomer, unassigned) [Example 36]
Q: Cn1ncc(-c2ccc(C(=O)N(c3nccc4ccn(C)c34)[C@@H]3CCCNC3)cc2)c1C(=O)O
query: In the pair P and Q , the larger recorded pIC50 belongs to which? Provide the label of your selected option as the answer.
result: Q

I: CCOC(=O)OC(C)OC(=O)c1c(-c2ccc(C(=O)N(c3ncccc3Cl)[C@@H]3CCCNC3)cc2)cnn1C (stereo partly drawn)
II: CCC(OC(=O)C(C)C)n1nnc(-c2c(-c3ccc(C(=O)N(c4ncccc4C)[C@@H]4CCCNC4)cc3)cnn2C)n1 (single isomer, unassigned) [Example 53]
query: In the pair I and II , the larger recorded pIC50 belongs to which? Provide the label of your selected option as the answer.
result: I

a: Cc1cccnc1N(C(=O)c1ccc(-c2cnn(C)c2-c2nnn(C(C)OC(=O)C(C)C)n2)cc1)[C@@H]1CCCNC1 (single isomer, unassigned) [Example 51]
b: Cc1cccnc1N(C(=O)c1ccc(-c2cnn(C)c2-c2nnn(C(OC(=O)OC(C)C)C(C)C)n2)cc1)[C@@H]1CCCNC1 (single isomer, unassigned) [Example 42]
c: CCC(OC(=O)OC(C)C)n1nnc(-c2c(-c3ccc(C(=O)N(c4ncccc4C)[C@@H]4CCCNC4)cc3)cnn2C)n1 (single isomer, unassigned) [Example 41]
query: Sort entries by pIC50 from minimum to maximum value. Give your ranking as a list of the labels in the requested order.
result: c, b, a

a: O=C(c1ccc(-n2nnc3cccnc32)cc1)N(c1ncccc1Cl)[C@@H]1CCCNC1
b: Cn1ncc(-c2ccc(C(=O)N(c3ncccc3Cl)[C@@H]3CCCNC3)cc2)c1C(=O)NS(=O)(=O)C(F)(F)F
c: Cc1cccnc1N(C(=O)c1ccc(-c2cnn(C)c2C(=O)NS(C)(=O)=O)cc1)[C@@H]1CCCNC1
query: Arrange the 3 compounds from largest to smallest pIC50. Give your ranking as a list of the labels in the requested order.
result: a, b, c
(a: 6.28, b: 5.24, c: 4.77)

a: Cc1cccnc1N(C(=O)c1ccc(-c2cnn(C)c2-c2nnn(C(C)OC(=O)OC(C)C)n2)cc1)[C@@H]1CCCNC1 (single isomer, unassigned) [Example 39]
b: Cc1cccnc1N(C(=O)c1ccc(-c2cnn(C)c2-c2nnn(C(OC(=O)C(C)C)C(C)C)n2)cc1)[C@@H]1CCCNC1 (single isomer, unassigned) [Example 54]
query: Would you mind telling me which has the lower recorded pIC50 between a and b ? Provide the label of your selected option as the answer.
result: b
